Record form. Attribute: hS1P1 cAMP pEC50. Fill in for each entry.
experimental-target: human sphingosine-1-phosphate receptor 1 (S1P1) (Homo sapiens (Human), UniProt P21453)
Sequence (P21453 whole entry, looked up): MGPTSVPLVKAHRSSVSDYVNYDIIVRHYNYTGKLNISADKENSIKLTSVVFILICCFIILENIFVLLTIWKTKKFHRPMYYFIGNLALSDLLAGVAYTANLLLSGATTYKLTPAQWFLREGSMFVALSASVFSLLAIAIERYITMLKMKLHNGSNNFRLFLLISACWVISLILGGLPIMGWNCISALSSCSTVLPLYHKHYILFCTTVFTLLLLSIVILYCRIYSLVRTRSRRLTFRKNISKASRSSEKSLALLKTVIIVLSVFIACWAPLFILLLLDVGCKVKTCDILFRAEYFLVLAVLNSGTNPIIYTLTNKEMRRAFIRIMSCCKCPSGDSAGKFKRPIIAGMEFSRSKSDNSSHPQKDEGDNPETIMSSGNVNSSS
measurement-description: Inhibition of cAMP production (HTRF cAMP HiRange), S1P1 CHO-K1 cells
Type: cell-based
measurement-context: inhibition of cAMP production, S1P1 CHO-K1 cells

Worked examples follow.
>  <compound>
C=CCn1nnc2cc(-c3noc(-c4ccccc4Br)n3)ccc21

>  <hS1P1 cAMP pEC50>
<6.5

$$$$
>  <compound>
CC(C)Nc1ccc(-c2nc(-c3ccc4sc(N)nc4c3)no2)cc1C#N

>  <hS1P1 cAMP pEC50>
>6.5

$$$$
>  <compound>
Cc1ccccc1-c1noc(-c2cnc3c(c2)nnn3C(C)C)n1

>  <hS1P1 cAMP pEC50>
>6.5

$$$$
>  <compound>
COc1cccc(-c2noc(-c3ccc4c(c3)nnn4C3CCCC3)n2)n1

>  <hS1P1 cAMP pEC50>
<6.5

$$$$
>  <compound>
CCC1(CC)CC(=O)c2cc(-c3nnc(-c4ccc5c(c4)nnn5C(C)C)s3)ccc2O1

>  <hS1P1 cAMP pEC50>
<6.5

$$$$

Below are some compounds; for each one, tell me its hS1P1 cAMP pEC50.
1. O=C1CC2(CCOCC2)Oc2ccc(-c3nc(-c4ccncc4)no3)cc21
2. CCC1(CC)CC(=O)c2cc(-c3nc(-c4ccccc4O)no3)ccc2O1
3. Brc1ccccc1-c1nc(-c2ccc3c(c2)nnn3C2CCCC2)no1
4. CCC1(CC)CC(=O)c2cc(-c3nc(-c4ccc(S(=O)(=O)NC)cc4)no3)ccc2O1
5. CCC1(CC)CC(=O)c2cc(-c3nc(-c4ccc5c(c4)nnn5C(C)C)no3)ccc2O1
6. CNc1ccccc1-c1nc(-c2ccc3c(c2)nnn3C(C)C)no1

1: <6.5; 2: <6.5; 3: >6.5; 4: <6.5; 5: <6.5; 6: >6.5

# return hS1P1 cAMP pEC50 for each item in the list
1. COc1ccccc1-c1cnc(-c2ccc3c(c2)nnn3C(C)C)s1
2. CCC1(CC)CC(=O)c2cc(-c3nc(-c4ccncc4)no3)ccc2O1
3. CC1CC(=O)c2ccc(-c3nc(-c4cccnc4)no3)cc2O1 (centres unmarked)

<6.5
<6.5
<6.5

Give one value of hS1P1 cAMP pEC50 per listed compound.
1. N#Cc1cc(-c2nnc(-c3ccc4[nH]ncc4c3)o2)ccc1NCC(F)F
2. c1cc(-c2noc(-c3ccc4c(c3)nnn4C3CC3)n2)ccn1
3. CC(C)Nc1ccc(-c2nnc(-c3ccc4c(c3)ncn4C)o2)cc1C#N
4. CCC1(CC)CC(=O)c2cc(-c3nc(-c4ccc[nH]4)no3)ccc2O1
5. CC(C)n1nnc2cc(-c3noc(-c4cccc(COc5ccccc5)c4)n3)ccc21
6. CC(C)Oc1ccc(-c2ccc(-c3ccc4c(c3)nnn4C(C)C)cc2)cc1C#N
7. Brc1ccccc1-c1nc(-c2ccc3c(c2)nnn3Cc2ccccn2)no1
8. Cc1ccsc1-c1noc(-c2ccc3c(c2)nnn3C(C)C)n1

[">6.5", "<6.5", "<6.5", ">6.5", "<6.5", ">6.5", "<6.5", ">6.5"]

###

experimental-target: human sphingosine-1-phosphate receptor 1 (S1P1) (Homo sapiens (Human), UniProt P21453)
measurement-description: Inhibition of cAMP production (HTRF cAMP HiRange), S1P1 CHO-K1 cells
Assay type: cell-based
measurement-context: inhibition of cAMP production, S1P1 CHO-K1 cells
Provide the recorded hS1P1 cAMP pEC50 for the entries that follow.

>  <mol>
Clc1ccc(-c2noc(-c3ccc4c(c3)nnn4C3CCOCC3)n2)s1

>  <experimental-target>
human sphingosine-1-phosphate receptor 1 (S1P1) (Homo sapiens (Human), UniProt P21453)

>  <measurement-kind>
hS1P1 cAMP pEC50

>  <result>
<6.5

$$$$
>  <mol>
CCC1(CC)CC(=O)c2cc(-c3nc(-c4ccc(NC)cc4)no3)ccc2O1

>  <experimental-target>
human sphingosine-1-phosphate receptor 1 (S1P1) (Homo sapiens (Human), UniProt P21453)

>  <measurement-kind>
hS1P1 cAMP pEC50

>  <result>
<6.5

$$$$
>  <mol>
Cc1cnccc1-c1nc(-c2ccc3c(ccn3C(C)C)c2)no1

>  <experimental-target>
human sphingosine-1-phosphate receptor 1 (S1P1) (Homo sapiens (Human), UniProt P21453)

>  <measurement-kind>
hS1P1 cAMP pEC50

>  <result>
>6.5

$$$$
>  <mol>
CCC1(CC)CC(=O)c2cc(-c3nc(-c4cncc(N)c4)no3)ccc2O1

>  <experimental-target>
human sphingosine-1-phosphate receptor 1 (S1P1) (Homo sapiens (Human), UniProt P21453)

>  <measurement-kind>
hS1P1 cAMP pEC50

>  <result>
>6.5

$$$$
>  <mol>
COc1cccc(-c2csc(-c3ccc4c(ccn4C(C)C)n3)n2)c1

>  <experimental-target>
human sphingosine-1-phosphate receptor 1 (S1P1) (Homo sapiens (Human), UniProt P21453)

>  <measurement-kind>
hS1P1 cAMP pEC50

>  <result>
<6.5

$$$$

Below is a list of molecules. For each, state its recorded hS1P1 cAMP pEC50.
1. N#Cc1cc(-c2nnc(-c3ccc4c(c3)CCC(=O)N4)o2)ccc1NCC(F)F
2. COc1ccccc1-c1cnc(-c2ccc3c(c2)nnn3C(C)C)nc1
3. CC(C)n1nnc2cc(-c3nc(-c4ccncc4)no3)ccc21
4. CCCn1nnc2cc(-c3nc(-c4ccncc4)no3)ccc21
5. CC(C)n1nnc2cc(-c3noc(-c4cnccn4)n3)ccc21
6. CCC1(CC)CC(=O)c2cc(-c3nc(-c4ccccc4Cl)no3)ccc2O1
7. CCC1(CC)CC(=O)c2cc(-c3nnc(-c4ccccc4OC)o3)ccc2O1

[">6.5", ">6.5", ">6.5", "<6.5", "<6.5", ">6.5", "<6.5"]

State the recorded hS1P1 cAMP pEC50 for every item in the following list.
1. Cc1ccccc1-c1noc(-c2ccc3c(c2)nnn3CC2CC2)n1
2. CC(C)n1ccc2cc(-c3noc(-c4cccc(F)c4)n3)ccc21
3. N#Cc1cc(-c2nnc(-c3ccc4c(c3)CCC(=O)N4)o2)ccc1NCCF
4. CC(C)Nc1ccc(-c2nc(-c3ccc4c(c3)CCNC4=O)no2)cc1C#N
5. CCC1(CC)CC(=O)c2cc(-c3nc(-c4ccc5c(c4)nnn5C(C)C)ns3)ccc2O1

1. <6.5
2. <6.5
3. >6.5
4. >6.5
5. <6.5

Looking for the measured hS1P1 cAMP pEC50 of "CCC1(CC)CC(=O)c2cc(-c3nc(-c4cccc(OC)c4)no3)ccc2O1" , can you help? <6.5
